These data points were gathered from paper PMC6420155.

experimental target: T1, dopamine D2 receptor (long isoform), C-terminally tagged with Renilla luciferase variant 8, P14416
T1 chain: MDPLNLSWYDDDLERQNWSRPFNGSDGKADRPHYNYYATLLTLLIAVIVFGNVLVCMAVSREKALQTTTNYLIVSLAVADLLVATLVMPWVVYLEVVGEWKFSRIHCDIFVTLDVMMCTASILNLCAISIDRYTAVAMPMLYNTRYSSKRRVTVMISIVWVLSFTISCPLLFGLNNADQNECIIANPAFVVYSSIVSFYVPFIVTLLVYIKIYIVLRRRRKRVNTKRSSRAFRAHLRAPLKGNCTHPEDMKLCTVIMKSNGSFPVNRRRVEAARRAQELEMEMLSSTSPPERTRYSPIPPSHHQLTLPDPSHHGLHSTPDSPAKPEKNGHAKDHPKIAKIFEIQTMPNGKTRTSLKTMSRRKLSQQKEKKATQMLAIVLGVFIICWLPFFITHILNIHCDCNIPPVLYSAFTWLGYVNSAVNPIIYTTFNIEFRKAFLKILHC
measurement notes: BRET
conditions used: chain shown with the change; HEK293 arrestin 2/3 KO cells; agonist-induced minus basal BRET; average at 10 and 15 min; parent: est. 0.023; read off a plot
value kind: response
Lab note: write the figure by itself, no unit.

Incoming: Sample Venus-tagged arrestin-3 A87V base mutant, P32120 E157A (protein) MGEKPGTRVFKKSSPNCKLTVYLGKRDFVDHLDKVDPVDGVVLVDPDYLKDRKVFVTLTCAFRYGREDLDVLGLSFRKDLFIANYQVFPPTPNPPRPPTRLQERLLRKLGQHAHPFFFTIPQNLPCSVTLQPGPEDTGKACGVDFEIRAFCAKSLEAKSHKRNSVRLVIRKVQFAPEKPGPQPSAETTRHFLMSDRSLHLEASLDKELYYHGEPLNVNVHVTNNSTKTVKKIKVSVRQYADICLFSTAQYKCPVAQVEQDDQVSPSSTFCKVYTITPLLSNNREKRGLALDGKLKHEDTNLASSTIVKEGANKEVLGILVSYRVKVKLVVSRGGDVSVELPFVLMHPKPHDHIALPRPQSAA — what was its response?
Outgoing: 0.023

Incoming: And then Venus-tagged arrestin-3 A87V base mutant, P32120 G65P (protein) MGEKPGTRVFKKSSPNCKLTVYLGKRDFVDHLDKVDPVDGVVLVDPDYLKDRKVFVTLTCAFRYPREDLDVLGLSFRKDLFIANYQVFPPTPNPPRPPTRLQERLLRKLGQHAHPFFFTIPQNLPCSVTLQPGPEDTGKACGVDFEIRAFCAKSLEEKSHKRNSVRLVIRKVQFAPEKPGPQPSAETTRHFLMSDRSLHLEASLDKELYYHGEPLNVNVHVTNNSTKTVKKIKVSVRQYADICLFSTAQYKCPVAQVEQDDQVSPSSTFCKVYTITPLLSNNREKRGLALDGKLKHEDTNLASSTIVKEGANKEVLGILVSYRVKVKLVVSRGGDVSVELPFVLMHPKPHDHIALPRPQSAA , what is it?
Outgoing: 0.019

Incoming: And then Venus-tagged arrestin-3 A87V base mutant, P32120 K313A (protein) MGEKPGTRVFKKSSPNCKLTVYLGKRDFVDHLDKVDPVDGVVLVDPDYLKDRKVFVTLTCAFRYGREDLDVLGLSFRKDLFIANYQVFPPTPNPPRPPTRLQERLLRKLGQHAHPFFFTIPQNLPCSVTLQPGPEDTGKACGVDFEIRAFCAKSLEEKSHKRNSVRLVIRKVQFAPEKPGPQPSAETTRHFLMSDRSLHLEASLDKELYYHGEPLNVNVHVTNNSTKTVKKIKVSVRQYADICLFSTAQYKCPVAQVEQDDQVSPSSTFCKVYTITPLLSNNREKRGLALDGKLKHEDTNLASSTIVKEGANAEVLGILVSYRVKVKLVVSRGGDVSVELPFVLMHPKPHDHIALPRPQSAA , what is it?
Outgoing: 0.025

Incoming: And then Venus-tagged arrestin-3 A87V base mutant, P32120 F245A (protein) MGEKPGTRVFKKSSPNCKLTVYLGKRDFVDHLDKVDPVDGVVLVDPDYLKDRKVFVTLTCAFRYGREDLDVLGLSFRKDLFIANYQVFPPTPNPPRPPTRLQERLLRKLGQHAHPFFFTIPQNLPCSVTLQPGPEDTGKACGVDFEIRAFCAKSLEEKSHKRNSVRLVIRKVQFAPEKPGPQPSAETTRHFLMSDRSLHLEASLDKELYYHGEPLNVNVHVTNNSTKTVKKIKVSVRQYADICLASTAQYKCPVAQVEQDDQVSPSSTFCKVYTITPLLSNNREKRGLALDGKLKHEDTNLASSTIVKEGANKEVLGILVSYRVKVKLVVSRGGDVSVELPFVLMHPKPHDHIALPRPQSAA , what is it?
Outgoing: 0.027
